# Method Description: Pharmacokinetic study in rats after oral administration of Epimedium extract (HPLC-MS/MS of plasma)
# Format: in vivo, Male Sprague-Dawley rats
# Measurement Conditions: male, Sprague-Dawley; rat plasma, single oral dose of Epimedium extract 10 g/kg, n = 6; read-out: AUC(0-tn)
Readout Type: AUC (ng·h/mL)

Compound: O=C(/C=C/c1ccc(O)c(O)c1)O[C@@H]1C[C@@](O)(C(=O)O)C[C@@H](O)[C@@H]1O
Readout Type: AUC
Experimental Result: 264

Compound: O=C(/C=C/c1ccc(O)c(O)c1)O[C@H]1[C@H](O)C[C@](O)(C(=O)O)C[C@H]1O
Readout Type: AUC
Experimental Result: 398

Compound: COc1ccc(-c2oc3c(CC=C(C)C)c(OC4OC(CO)C(O)C(O)C4O)cc(O)c3c(=O)c2OC2OC(C)C(O)C(O)C2OC2OC(C)C(O)C(O)C2O)cc1 (stereo not drawn) [epimedin C]
Readout Type: AUC
Experimental Result: 850

(a) COc1ccc(-c2oc3c(CC=C(C)C)c(O)cc(O)c3c(=O)c2O[C@@H]2O[C@@H](C)[C@H](O)[C@@H](O)[C@H]2O[C@@H]2O[C@H](CO)[C@@H](O)[C@H](O)[C@H]2O)cc1 [sagittatoside A]
(b) CC(C)=CCc1c(O)cc(O)c2c(=O)c(OC3OC(C)C(O)C(O)C3O)c(-c3ccc(O)cc3)oc12 (stereo not drawn) [baohuoside II]
(c) COc1ccc(-c2oc3c(CC=C(C)C)c(OC4OC(CO)C(O)C(O)C4O)cc(O)c3c(=O)c2OC2OC(C)C(O)C(O)C2OC2OCC(O)C(O)C2O)cc1 (stereo not drawn) [epimedin B]
(d) COc1ccc(-c2oc3c(CC=C(C)C)c(OC4OC(CO)C(O)C(O)C4O)cc(O)c3c(=O)c2OC2OC(C)C(O)C(O)C2OC2OC(CO)C(O)C(O)C2O)cc1 (stereo not drawn) [epimedin A]
(e) COc1ccc2c(c1O)-c1c(O)c(OC)cc3c1[C@H](C2)[N+](C)(C)CC3
Rank the items in ascending order with respect to AUC. Thanks in advance for listing the labels in the requested order.
b, d, c, a, e
(b: 246 ng·h/mL, d: 550 ng·h/mL, c: 946 ng·h/mL, a: 1610 ng·h/mL, e: 3680 ng·h/mL)

(A) O=C(/C=C/c1ccc(O)c(O)c1)O[C@@H]1C[C@](O)(C(=O)O)C[C@@H](O)[C@H]1O
(B) COc1ccc(-c2oc3c(CC=C(C)C)c(O[C@@H]4O[C@H](CO)[C@@H](O)[C@H](O)[C@H]4O)cc(O)c3c(=O)c2O[C@@H]2O[C@@H](C)[C@H](O)[C@@H](O)[C@H]2O)cc1
(C) COc1ccc(-c2oc3c(CC=C(C)C)c(O)cc(O)c3c(=O)c2O[C@@H]2O[C@@H](C)[C@H](O)[C@@H](O)[C@H]2O)cc1 [baohuoside I]
Rank the items in ascending order with respect to AUC. Thanks in advance for listing the labels in the requested order.
B, A, C
